- Tested on: BRL-3a
- Protocol: Cell proliferation assay
- Format: cell-based, Rattus norvegicus
- Assay Context: liver, normal, 72 hours
Reported Property: IC50

• CC1=Nc2c(F)cc(-c3nc(Nc4ccc(C5CCN(C)CC5)cn4)ncc3F)cc2C12CCCC2 = 1870 nM

====

- System: HTC116
- Protocol: Cell proliferation assay
- Assay type: cell-based, Homo sapiens
- Assay Context: Homo sapiens; HTC116, colorectal carcinoma, 72 hours
Reported Property: IC50 (µM)

- CCN1CCN(Cc2ccc(Nc3ncc(F)c(-c4cc(F)c5nc(C)n(C(C)C)c5c4)n3)nc2)CC1 [Abemaciclib, abemaciclib, reference compound]: 0.076
